- Test system: neurological deficit (rotorod)
- Protocol notes: rotorod toxicity test
- Type: in vivo
- Test context: mouse, in vivo, ip; dose giving rotorod failure in 50% subjects; about 25 min after intraperitoneal injection in oil; male CF-1 mice; read-out: TD50
Measured quantity: TD50 (µmol/kg)
Give just the number in µmol/kg; leave the unit off.

{"columns": ["Molecule", "Target under test", "Unit info", "Numeric value"],
 "data": [
  ["CCCCCCCC(C)=O [2-Nonanone]", "neurological deficit (rotorod)", "µmol/kg", 15900],
  ["CCCC(C)=O [2-Pentanone]", "neurological deficit (rotorod)", "µmol/kg", 7200],
  ["CCCCC(=O)CCCC [5-Nonanone]", "neurological deficit (rotorod)", "µmol/kg", 13200]
]}

The reported TD50 value, neurological deficit (rotorod), for CCCCCC(C)O (stereo not drawn) [2-Heptanol] reads 5100

The reported TD50 value, neurological deficit (rotorod), for CCCC(CCC)C(=O)O [valproate] reads 3800

The reported TD50 value, neurological deficit (rotorod), for CCCCCC(=O)CCC [4-Nonanone] reads 16300

The reported TD50 value, neurological deficit (rotorod), for CCCCC(C)=O [2-Hexanone] reads 4400

The reported TD50 value, neurological deficit (rotorod), for CCCC(=O)CCC [4-Heptanone] reads 4700

The reported TD50 value, neurological deficit (rotorod), for CCCCCCC(C)=O [2-Octanone] reads 6000

The reported TD50 value, neurological deficit (rotorod), for CCCC(C)O (stereo not drawn) [2-Pentanol] reads 5700

The reported TD50 value, neurological deficit (rotorod), for CCCCCC(C)=O [2-Heptanone] reads 6000

The reported TD50 value, neurological deficit (rotorod), for CCC(=O)CC [3-Pentanone] reads 7600

The reported TD50 value, neurological deficit (rotorod), for CCCCCCCC(C)O (stereo not drawn) [2-Nonanol] reads 5000

The reported TD50 value, neurological deficit (rotorod), for CCCCCCC(C)O (stereo not drawn) [2-Octanol] reads 3900

The reported TD50 value, neurological deficit (rotorod), for CCCCCCC(=O)CC [3-Nonanone] reads 20900

----------
- Tested on: neurological deficit (rotorod)
- Protocol notes: rotorod toxicity test
- Type: in vivo
- Test context: dose giving rotorod failure in 50% subjects; about 25 min after intraperitoneal injection in oil; male CF-1 mice
Measured quantity: TD50

{"columns": ["Molecule", "Measured quantity", "Result"],
 "data": [
  ["CCCCCC(=O)CCCCC [6-Undecanone]", "TD50", "Not Active"],
  ["CCCCCCCCCC(C)=O [2-Undecanone]", "TD50", "Not Active"],
  ["CCCCCCCCC(C)O (stereo not shown) [2-Decanol]", "TD50", "Not Active"]
]}

----------
- System: MES seizure
- Protocol notes: maximal electroshock (MES) seizure test
- Assay type: in vivo, mice
- Test context: ratio TD50 (rotorod)/ED50 (MES), mice
- Procedure: Male CF-1 mice, weighing 28-30 g, were used as subjects (Charles River Canada, La Prairie, Quebec, Canada). Three to five subjects per drug dose were used to prescreen each compound for anticonvulsant activity. […] Data analysis was performed using GraphPad Prizm software package version 3.02 for Windows (GraphPad Software Inc, San Diego, Calif., USA). […] Therapeutic index (TI) was calculated as a ratio of TD50/ED50.

{"columns": ["Compound", "TI (therapeutic index)"],
 "data": [
  ["CCCCCCCCCC(C)=O", "Not Active"],
  ["CCCCCC(=O)CCCCC", "Not Active"],
  ["CCCCCCCCC(C)=O", "Not Active"],
  ["CCCCCCCCC(C)O (stereo not shown)", "Not Active"]
]}
